The measured values listed here are drawn from paper PMC5177656.

Substrate: O=CC(O)COP(=O)(O)O
Test: coupled assay with alpha-glycerophosphate dehydrogenase, NADH consumption
Format: biochemical, Arabidopsis thaliana
Conditions: pH 7.8, 30°C, 100 mM Tris-Cl, 5 mM DTT, GAP 0-4 mM (from DL-GAP)

>  <protein>
cTPI (cytosolic triosephosphate isomerase) (Arabidopsis thaliana; C127S/C218S) (protein, tag removal not mentioned) MARKFFVGGNWKCNGTAEEVKKIVNTLNEAQVPSQDVVEVVVSPPYVFLPLVKSTLRSDFFVAAQNCWVKKGGAFTGEVSAEMLVNLDIPWVILGHSERRAILNESSEFVGDKVAYALAQGLKVIASVGETLEEREAGSTMDVVAAQTKAIADRVTNWSNVVIAYEPVWAIGTGKVASPAQAQEVHDELRKWLAKNVSADVAATTRIIYGGSVNGGNSKELGGQADVDGFLVGGASLKPEFIDIIKAAEVKKSA

>  <endpoint_unit>
s⁻¹

>  <kcat>
14.8

$$$$
>  <protein>
cTPI (cytosolic triosephosphate isomerase) (Arabidopsis thaliana) (protein, tag removal not mentioned) MARKFFVGGNWKCNGTAEEVKKIVNTLNEAQVPSQDVVEVVVSPPYVFLPLVKSTLRSDFFVAAQNCWVKKGGAFTGEVSAEMLVNLDIPWVILGHSERRAILNESSEFVGDKVAYALAQGLKVIACVGETLEEREAGSTMDVVAAQTKAIADRVTNWSNVVIAYEPVWAIGTGKVASPAQAQEVHDELRKWLAKNVSADVAATTRIIYGGSVNGGNCKELGGQADVDGFLVGGASLKPEFIDIIKAAEVKKSA

>  <endpoint_unit>
s⁻¹

>  <kcat>
3410

$$$$
>  <protein>
cTPI (cytosolic triosephosphate isomerase) (Arabidopsis thaliana; C127S) (protein, tag removal not mentioned) MARKFFVGGNWKCNGTAEEVKKIVNTLNEAQVPSQDVVEVVVSPPYVFLPLVKSTLRSDFFVAAQNCWVKKGGAFTGEVSAEMLVNLDIPWVILGHSERRAILNESSEFVGDKVAYALAQGLKVIASVGETLEEREAGSTMDVVAAQTKAIADRVTNWSNVVIAYEPVWAIGTGKVASPAQAQEVHDELRKWLAKNVSADVAATTRIIYGGSVNGGNCKELGGQADVDGFLVGGASLKPEFIDIIKAAEVKKSA

>  <endpoint_unit>
s⁻¹

>  <kcat>
70.4

$$$$
>  <protein>
cTPI (cytosolic triosephosphate isomerase) (Arabidopsis thaliana; C218S) (protein, tag removal not mentioned) MARKFFVGGNWKCNGTAEEVKKIVNTLNEAQVPSQDVVEVVVSPPYVFLPLVKSTLRSDFFVAAQNCWVKKGGAFTGEVSAEMLVNLDIPWVILGHSERRAILNESSEFVGDKVAYALAQGLKVIACVGETLEEREAGSTMDVVAAQTKAIADRVTNWSNVVIAYEPVWAIGTGKVASPAQAQEVHDELRKWLAKNVSADVAATTRIIYGGSVNGGNSKELGGQADVDGFLVGGASLKPEFIDIIKAAEVKKSA

>  <endpoint_unit>
s⁻¹

>  <kcat>
2690

$$$$
